- Test system: NCI/ADR-RES ovarian
- assay.name: NCI-60 one-dose screen, 48 h
- measurement.setup: 10 µM unless noted
- Procedure: Growth inhibition of the NCI/ADR-RES human […] tumor cell line is measured as a screen for anti-cancer activity. Cells are grown in 96 well plates and exposed to the test compound for 48 hours. Compounds are tested at a single concentration, which is 10^-5 M for most compounds. The reported endpoint is percent growth (GI% or GIPRCNT), where numbers from 0 - 100% represent growth inhibition, and numbers from -100% - 0 represent cell death. For example, a value of 40 represents 60% growth inhibition. […]
This is part of a sample that, as a whole, favours compounds with a hit. Of some 83,000 tested, about 20% had one in any assay. Active and inactive are the calls of the source. The calls were made as follows: active = growth percent below 10; inactive = the rest.
Valid outcomes are listed here; reply with one: t (active), f (inactive)

Lab log entry: "COc1ccc(C/C(C)=C(\c2ccc(Cl)cc2)c2ccc(OCCCN(C)C)cc2)cc1" — outcome as called in the assay?
f

And for "C=C1C(=O)O[C@H]2[C@H]1CC/C(COC(=O)NCc1ccc(Cn3c(=O)sn(-c4ccc(I)cc4)c3=O)cc1)=C\CC[C@@]1(C)O[C@@H]21" ?
f

And for "Cc1cc(N2CCN(CC(=O)Nc3ccc4c(ccn4Cc4ccccc4)c3)CC2)nc(N2CCOCC2)n1" ?
f

And for "O=C(NCCCCCCNC(=O)OCc1ccc2c(Cl)cc(Cl)c(O)c2n1)OCc1ccc2c(Cl)cc(Cl)c(O)c2n1" ?
t

And for "COc1ccc(Oc2ccc(/C=C/C(=O)c3cc4ccccc4oc3=O)cc2)cc1" ?
f

###

- Test system: SNB-19 CNS
- assay.name: NCI-60 one-dose screen, 48 h (100 = growth as untreated, 0 = no growth, -100 = all killed)
- measurement.setup: 10 µM unless noted
The panel holds about 83,000 compounds, 20% with a hit somewhere; the sample as a whole holds those more often.
The recorded growth of each item maps onto one of these classes: bin 0: < 40%; bin 1: ≥ 40% and < 90%; bin 2: ≥ 90%

Recorded results for 6 compounds are shown here.
* COC(=O)c1c2c(c(C)[n+]([O-])c1C)C(=O)C(NCc1ccccc1)=CC2=O | bin 0
* Cc1ccc(C2CC(c3cccc(Nc4ccncc4)c3)=Nc3c(N)nc(N)nc3N2)cc1 (centres undefined) | bin 1
* O=C(/C=C/c1ccccc1Cl)c1cccc(OCCCCOc2cccc(C(=O)/C=C/c3ccccc3Cl)c2)c1 | bin 2
* CC1SC(c2ccccc2O)N(NC(=O)CCC(=O)c2nc3ncccc3[nH]2)C1=O (centres undefined) | bin 2
* COc1ccccc1S(=O)(=O)Nc1ccc2c3c(cc(CCC(=O)NCCCCNc4cccc5c4C(=O)N(C4CCC(=O)NC4=O)C5=O)cc13)C(=O)N2C (centres undefined) | bin 0
* O=C(Nc1cccnc1Nc1ccccc1)c1cn(Cc2cccc(Oc3ccccc3)c2)nn1 | bin 1

Pending compound:
Into which category would you place "COc1ccc(/C=C(\C(=O)NCc2cccnc2)S(=O)(=O)c2ccccc2)cc1OC" ?
bin 0

###

- Tested on: MDA-MB-435 melanoma
- assay.name: NCI-60 one-dose screen, 48 h (100 = growth as untreated, 0 = no growth, -100 = all killed)
- measurement.setup: 10 µM unless noted
The panel holds about 83,000 compounds, 20% with a hit somewhere; the sample as a whole holds those more often.
Doc: threshold 80% (exclusive). Items with growth beneath it return Criterion met; others return Criterion not met.

* CCn1cc(C(=O)N/N=C/c2cccc(F)c2)c(=O)c2cc(F)c(N3CCNC(C)C3)c(F)c21 (stereo not drawn) | Criterion met
* Nc1ccc(-c2ccncc2)cc1NC(=O)N1CCCC1 | Criterion not met
* C[C@@H]1CN(c2cnc(C(=O)Nc3cc(F)cc4cccnc34)cn2)C[C@H](C)N1 | Criterion not met

Determine whether this compound shows growth lower than 80% (ties excluded): "Nc1[nH]nc2nc(-c3ccccc3)n3c4ccccc4nc3c12"
Criterion not met

And for "CCn1cc(Cc2cc(C(=O)Nc3cc4cc(OC)c(OC)cc4c(C)n3)ccc2Cl)cn1" ?
Criterion met

And for CCOC(=O)CC1CSC(N/N=C/c2ccc(F)c(Br)c2)=N1 (stereo not drawn) ?
Criterion not met

And for "O=C(c1cccc(N2CCOCC2)n1)c1c[nH]c2ccccc12" ?
Criterion not met

###

- System: RXF 393 renal
- assay.name: NCI-60 one-dose screen, 48 h
- measurement.setup: 10 µM unless noted
Compounds without any hit were thinned out: in the full panel of roughly 83,000, 20% have a hit. Active and inactive are the calls of the source. Rule for the calls: active = growth percent below 10; inactive = the rest.
Valid outcomes are listed here; reply with one: 1.0 (active), 0.0 (inactive)

• C[C@@H]1CN(c2cnc(C(=O)Nc3cc(F)cc4cccnc34)cn2)C[C@H](C)N1 = 0.0
• O=C(Nc1ncc(Cc2ccccc2)s1)c1sc2ccccc2c1Cl = 1.0
• COc1ccc(C(=O)C/C(=C\c2ccc(O)c(OC)c2)C(=O)NN)cc1 = 0.0
• CN(C)CCCC1(c2ccc(F)cc2)OCc2cc(-c3csc4ccccc34)ccc21 (stereo not given) = 1.0
• COc1cccc(CNc2c3ccccc3nc3ccccc23)c1OC = 0.0

Pending compound:
Lab log entry: "COc1ccc(/C=N/Nc2c3ccccc3nc3ccccc23)cc1" — outcome as called in the assay?
0.0

###

- Test system: A498 renal
- assay.name: NCI-60 one-dose screen, 48 h
- measurement.setup: 10 µM unless noted
About 83,000 compounds went through this panel and 20% of them were active in at least one assay; those are over-represented in the sample as a whole. Activity calls are given as the source filed them. Rule for the calls: active = growth percent below 10; inactive = the rest.
Valid outcomes are listed here; reply with one: active, inactive

Lab log entry: "c1ccc(-c2c(-c3ccccc3)[n+](Cc3ccc4ccccc4c3)cn2Cc2ccc3ccccc3c2)cc1" — outcome as called in the assay?
active

###

- System: DU-145 prostate
- assay.name: NCI-60 one-dose screen, 48 h (100 = growth as untreated, 0 = no growth, -100 = all killed)
- measurement.setup: 10 µM unless noted
Compounds without any hit were thinned out: in the full panel of roughly 83,000, 20% have a hit.
value.type: growth (%)
Give bare numbers, in %.

Below: 4 compounds and their reported growth.
- CC12OC(CC(O)C1O)n1c3ccccc3c3c4c(c5c6ccccc6n2c5c31)C(=O)N(CCN1CCCC1)C4=O (stereo not given): 3.68
- C[N+]1=C(/C=C/c2ccccc2Cl)C(C)(C)c2ccccc21: 94.5
- CCCCn1c(NC(C)=O)c(S(=O)(=O)c2ccccc2)c2nc3ccccc3nc21: 104
- COc1ccccc1/C=C/C(=O)Nc1ccc(F)cc1: 98.6

Data request, read-out growth, for "Cc1ccc(S(=O)(=O)OC[C@]23CCC(C)(C)C[C@H]2C2=CC[C@@H]4[C@@]5(C)CCCNC(C)(C)[C@@H]5CC[C@@]4(C)[C@]2(C)CC3)cc1"
37.9

###

- Test system: MDA-MB-231 breast
- assay.name: NCI-60 one-dose screen, 48 h (100 = growth as untreated, 0 = no growth, -100 = all killed)
- measurement.setup: 10 µM unless noted
The panel holds about 83,000 compounds, 20% with a hit somewhere; the sample as a whole holds those more often.
Answer each item with its documented growth.
One number for each entry, in %.

- Cc1cc(=O)oc2cc(Oc3nc(Br)cn4c(Br)cnc34)ccc12: 29.6
- Clc1ccc(Nc2nnc(CNc3ccccc3)c3ccccc23)cc1: 19.9

Provide the reported growth of each entry below, same order.
1. COc1cc2ncnc(Nc3ccc(F)c(Cl)c3)c2cc1OCC(=O)N1CCOCC1
2. COc1ccc(-c2cc(C(=O)N3N=C(c4ccc(N)cc4)CC3c3ccc(Cl)cc3)c3ccccc3n2)cc1 (centres undefined)
3. O=C1CCC(C(=O)N/N=C/c2cc(F)ccc2F)N1 (centres undefined)
4. Cc1cccc(NC(=O)Cn2cc(CN3CCN(c4ccnc5cc(Cl)ccc45)CC3)nn2)c1
5. N#Cc1ccccc1-c1ccc(CN2C(=O)S/C(=C\c3ccc(Br)cc3)C2=O)cc1

108
44.2
111
78.2
95.9

Provide the reported growth of each entry below, same order.
1. N#CSc1c[nH]c2ccc(/C=C/C(=O)/C=C(O)/C=C/c3ccc4[nH]cc(SC#N)c4c3)cc12
2. C=C(C)[C@@H]1CC[C@]2(C(=O)N3CCNCC3)CC[C@]3(C)[C@H](CC[C@@H]4[C@@](C)(CCC(=O)N5CCNCC5)[C@H](C(=C)C)CC[C@]43C)[C@@H]12

22.8
71.2

###

- Tested on: SN12C renal
- assay.name: NCI-60 one-dose screen, 48 h (100 = growth as untreated, 0 = no growth, -100 = all killed)
- measurement.setup: 10 µM unless noted
About 83,000 compounds went through this panel and 20% of them were active in at least one assay; those are over-represented in the sample as a whole. Activity calls are given as the source filed them. Rule for the calls: active = growth percent below 10; inactive = the rest.
Answer each item with its documented growth.

Below: 5 compounds and their reported growth.
• O=[N+]([O-])c1c(O)c(Cl)cc(Cl)c1Cl = 101% (inactive)
• CNC(=O)c1cc(Oc2ccc3c(c2)sc2nc(-c4ccc(NC(=O)[C@@H](NC(=O)OC)C(C)C)cc4)cn23)ccn1 = 72.2% (inactive)
• Cc1cc2oc(/C=C/c3ccccc3)cc(=O)c2c(C)c1Cl = 99.1% (inactive)
• Cc1cccc(N=Nc2cccc(C)c2)c1 = 96.7% (inactive)
• COc1ccc2cc(C(=O)N3CCC([C@@H](C)C(=O)NCc4ccc5c(c4)OCO5)CC3)[nH]c2c1 = 53.2% [50 µM] (inactive)

Provide the reported growth of each entry below, same order.
1. Cc1ccc2c(c1)nc(C)n2-c1ncnc2c1CC(C)c1cc(O)ccc1N2C (stereo not given)
2. O=S(=O)(Nc1cc(F)cc(F)c1)c1ccc(-c2cnc(C3CC3)o2)cc1
3. Cc1nn(-c2ccc([N+](=O)[O-])cc2)c2ncnc(N/N=C/c3ccccc3O)c12
4. COc1cc2c3c(c4c5ccccc5[nH]c4c2c(OC)c1OC)C(=O)N(CCN1CCCCC1)C3=O
5. Fc1cccc(-c2nc(-c3c[nH]c4ncccc34)cs2)c1

1: 52.3% (inactive); 2: 46.9% (inactive); 3: 6.16% (active); 4: 12.6% (inactive); 5: 62.7% [100 µM] (inactive)
